# Test system: UACC-62 melanoma
# ASSAY EXPLANATION: NCI tumour cell line growth inhibition, 48 h
Response key: criterion met means TGI >= 30 µM; criterion not met means TGI < 30 µM.

See these solved cases before continuing.
Oc1ccc(Cl)cc1C1=N/C(=N\C/N=C2\N=C(c3cc(Cl)ccc3O)CC(c3ccccc3)N2)NC(c2ccccc2)C1 (centres undefined) ... criterion met
O=C1CSC(c2ccccc2O)N1c1nnc(Cn2ccnc2)o1 (centres undefined) ... criterion not met
COc1cc(OC)cc(-c2n/c(=C\c3c(O)[nH]c4ccc(Cl)cc34)cc3c2=Nc2ccccc2-3)c1 ... criterion met
O=C(NN1C(=O)CSC1c1ccc(F)cc1)C(O)c1ccccc1 (centres undefined) ... criterion met
COc1cccc(NC(=O)CC(=O)NNCC(=O)Nc2nnc(-c3ccc(N(CCC#N)S(=O)(=O)c4ccccc4)cc3)s2)c1 ... criterion met

In: Given Cc1cc(O)ccc1C1(c2ccc(F)cc2)OC(=O)c2ccccc21 (centres undefined) , state whether its TGI is at least 30 µM.
Out: criterion not met

In: Given CC1=C(Cl)C[C@@H](/C(C)=C\Cl)O[C@@]1(O)C(Br)Br , state whether its TGI is at least 30 µM.
Out: criterion met

In: Given Cc1cccc2c(Nc3ccc(NS(C)(=O)=O)cc3)c3ccc([N+](=O)[O-])cc3nc12 , state whether its TGI is at least 30 µM.
Out: criterion not met

---

# Tested on: SK-OV-3 ovarian
# ASSAY EXPLANATION: NCI tumour cell line growth inhibition, 48 h; in the data active means GI50 below about 0.43 µM; inactive means the rest
Select the correct class. Options are T = active, F = inactive and nothing else.

See these solved cases before continuing.
Nc1n[nH]c2ccc([C@@H]3Nc4cc5[nH]ncc5cc4[C@H]4C5CCC(C5)[C@@H]34)cc12 (stereo not given in full) ... F
Cc1c2ccncc2c(C)c2c1c1cc(CO)ccc1n2C ... F
COc1cc(OC)cc(-c2n/c(=C\c3c(O)[nH]c4ccc(Cl)cc34)cc3c2=Nc2ccccc2-3)c1 ... F
CN1CCN(c2cc3nc4ccccc4n(-c4ccc(Cl)cc4)c-3cc2=N)CC1 ... F

For the next question, use this compound.
In: What was the test verdict on COc1cccc(C2C(C#N)=C(N)Oc3c2ccc2ccccc32)c1 (stereo not given) ?
Out: T

---

# Tested on: COLO 205 colon
# ASSAY EXPLANATION: NCI tumour cell line growth inhibition, 48 h
REPORTED ENDPOINT: log10(TGI) (log10 of the value in µM)
In our notation, the value equals log10 of TGI in µM.

Worked cases, answers included:
CC(=O)OC(C)C(OC(C)=O)C(OC(C)=O)C(/C=C/C1CC=CC(=O)O1)OC(C)=O (centres undefined) ... 1.81
ONC1=Nc2ccccc2OCc2cc(Br)c(Br)cc2COc2ccccc2N=C1NO ... 1.33
COc1nc(OC)nc(-c2cccc(F)c2)n1 ... 1.58
CC(C)C(C/C=C1/CC(CO)(COC(=O)C2CCCCC2)OC1=O)C(C)C (centres undefined) ... 1.32
Cc1cc(C)c2c(=N)c3ccccc3n(CCCCCCO)c2n1 ... 0.45

In: Fill in the recorded log10(TGI) for this compound, with COLO 205 colon as test system: S=C(N/N=C\c1ccccn1)N(Cc1ccccn1)Cc1ccccn1
Out: 1.38

In: Fill in the recorded log10(TGI) for this compound, with COLO 205 colon as test system: CCN1CCCC(Nc2cc(C)nc(/N=C(/N)Nc3ccc(Cl)c(Cl)c3)n2)C1 (centres undefined)
Out: 0.47

In: Fill in the recorded log10(TGI) for this compound, with COLO 205 colon as test system: Cc1cc(O)ccc1C1(c2ccc(F)cc2)OC(=O)c2ccccc21 (centres undefined)
Out: 1.05

In: Fill in the recorded log10(TGI) for this compound, with COLO 205 colon as test system: CCOC(=O)C1=C(C)N2C(=NC3=C(CCC/C3=C\c3ccc(Cl)cc3)C2c2ccc(Cl)cc2)S1 (centres undefined)
Out: 0.67

In: Fill in the recorded log10(TGI) for this compound, with COLO 205 colon as test system: N=C(N)SCCCN
Out: 1.47

In: Fill in the recorded log10(TGI) for this compound, with COLO 205 colon as test system: Brc1cccc(-c2cc(-c3ccc4nccnc4c3)[nH]n2)c1
Out: 0.59

In: Fill in the recorded log10(TGI) for this compound, with COLO 205 colon as test system: O=C(O)COc1ccc(C(=O)/C(SS/C(C(=O)c2ccc(OCC(=O)O)c(Cl)c2Cl)=C2\C=C(c3ccc(Br)cc3)SS2)=C2/C=C(c3ccc(Br)cc3)SS2)c(Cl)c1Cl
Out: 1.17

In: Fill in the recorded log10(TGI) for this compound, with COLO 205 colon as test system: O=C1CCC2(O)C3Cc4ccc(Oc5nnnn5-c5ccccc5)c5c4C2(CCN3CC2CC2)C1O5 (centres undefined)
Out: 1.52

In: Fill in the recorded log10(TGI) for this compound, with COLO 205 colon as test system: O=[N+]([O-])c1ccc2c(Nc3ccccc3-c3ccccc3Nc3c4ccccc4nc4cc([N+](=O)[O-])ccc34)c3ccccc3nc2c1
Out: 0.98

In: Fill in the recorded log10(TGI) for this compound, with COLO 205 colon as test system: CCCCCCCCCCCCCP(=O)(NCC(N)=O)OCC (centres undefined)
Out: 1.53

In: Fill in the recorded log10(TGI) for this compound, with COLO 205 colon as test system: C=C1CC[C@@H]2[C@](C)(COC(C)=O)[C@H](OC(C)=O)CC[C@@]2(C)[C@@H]1CC(Nc1ccc(S(=O)(=O)Nc2nccs2)cc1)C1=CCOC1=O (some centres undefined)
Out: 1.02

In: Fill in the recorded log10(TGI) for this compound, with COLO 205 colon as test system: O=C(N/C(=C\c1cc(Cl)ccc1Cl)c1nc2ccc(Cl)cc2[nH]1)c1ccccc1
Out: 1.53

In: Fill in the recorded log10(TGI) for this compound, with COLO 205 colon as test system: COc1ccc(-c2onc(-c3c(C)cc(C)cc3C)c2C2=NCCN2)cc1
Out: 1.69

The values you see were collected from PubChem BioAssay (NCI).
